Exercise: state measured LIMF for each of the compounds provided.
Type: in vivo
Settings: Table S1, MTD study, 50 mg/kg

GET /value?item= NS(=O)(=O)Oc1ccc(-c2cn(-c3cc(F)cc(F)c3)nn2)cc1 [5l] &field=LIMF returns 86,6±0,2%

The compound listed as NS(=O)(=O)Oc1ccc(-c2cn(-c3cccc(Cl)c3)nn2)cc1 [4a] shows LIMF equal to 83,5±4,1%

# LIMF (compound: NS(=O)(=O)Oc1ccc(-c2cn(-c3cc(Cl)cc(Cl)c3)nn2)cc1 [4b] ) is 85,7±1,7%

Noted for NS(=O)(=O)Oc1ccc(-c2cn(-c3ccc(F)c(F)c3F)nn2)cc1 [5e] : its LIMF reads 85,6±2,6%

The recorded LIMF for entry NS(=O)(=O)Oc1ccc(-c2cn(-c3cccc(F)c3)nn2)cc1 [5g] equals 84,3±2,3%

* * *

For each of the molecules below, state its MCHC.
Experiment: blood morphology, blood biochemistry and organ weights of mice with 67NR tumor
Settings: Table S2, mice with 67NR tumor, 50 mg/kg

The molecule listed as NS(=O)(=O)Oc1ccc(-c2cn(-c3cc(Cl)cc(Cl)c3)nn2)cc1 [4b] has a reported MCHC of 37,6±0,6 g/dL

Value of MCHC reported for the molecule NS(=O)(=O)Oc1ccc(-c2cn(-c3cccc(Cl)c3)nn2)cc1 [4a] is 37,6±0,7 g/dL

Consider NS(=O)(=O)Oc1ccc(-c2cn(-c3cccc(F)c3)nn2)cc1 [5g] . Its measured MCHC is 38,6±0,6 g/dL

Query NS(=O)(=O)Oc1ccc(-c2cn(-c3cc(F)cc(F)c3)nn2)cc1 [5l] yields MCHC of 38,3±0,4 g/dL

The reported MCHC of the molecule NS(=O)(=O)Oc1ccc(-c2cn(-c3ccc(F)c(F)c3F)nn2)cc1 [5e] was 38,6±0,5 g/dL

* * *

Test: blood morphology, blood biochemistry and organ weights of mice with 67NR tumor
Details: Table S3, plasma, mice with 67NR tumor, 50 mg/kg per os; N=9
test_readout: AST

Lab note: measured AST of `NS(=O)(=O)Oc1ccc(-c2cn(-c3ccc(F)c(F)c3F)nn2)cc1` was 97,4±24,9 U/L

// AST lookup, compound = `NS(=O)(=O)Oc1ccc(-c2cn(-c3cccc(Cl)c3)nn2)cc1` , result: 91,7±15,4 U/L

Recorded AST (compound `NS(=O)(=O)Oc1ccc(-c2cn(-c3cccc(F)c3)nn2)cc1` ): 102,2±23,1 U/L

Sample `NS(=O)(=O)Oc1ccc(-c2cn(-c3cc(Cl)cc(Cl)c3)nn2)cc1` ; AST observed: 86,6±18,5 U/L

* * *

Biological target: STS in MCF-7 cells (Homo sapiens, UniProt P08842)
Construct: The radioisotope cellular assay was performed using the MCF-7 cell line; endogenous in cells; host or cells: MCF-7
Sequence (P08842 22-583): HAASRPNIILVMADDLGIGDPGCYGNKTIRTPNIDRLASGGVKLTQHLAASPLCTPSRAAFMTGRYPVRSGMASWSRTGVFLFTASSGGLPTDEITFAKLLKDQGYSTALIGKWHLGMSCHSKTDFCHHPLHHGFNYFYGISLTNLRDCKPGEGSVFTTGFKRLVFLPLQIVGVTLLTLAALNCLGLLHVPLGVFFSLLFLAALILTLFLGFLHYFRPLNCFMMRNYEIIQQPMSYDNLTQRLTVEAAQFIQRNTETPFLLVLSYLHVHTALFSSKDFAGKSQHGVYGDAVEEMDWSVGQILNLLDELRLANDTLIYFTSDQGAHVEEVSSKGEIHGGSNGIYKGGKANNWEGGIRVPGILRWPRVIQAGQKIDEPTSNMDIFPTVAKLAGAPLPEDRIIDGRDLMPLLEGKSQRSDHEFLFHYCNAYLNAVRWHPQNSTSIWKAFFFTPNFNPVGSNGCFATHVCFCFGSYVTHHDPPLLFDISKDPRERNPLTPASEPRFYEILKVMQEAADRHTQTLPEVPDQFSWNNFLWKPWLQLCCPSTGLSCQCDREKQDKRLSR
Assay: radioisotope cellular assay with [3H]E1S in MCF-7 cells
Format: cell-based
Details: MCF7, 20 h, MCF-7 cells; 100 nM inhibitor; substrate [3H]E1S, 3 nM; triplicate; read-out: residual STS activity [%] 100 nM
test_readout: remaining activity at 0.1 µM (%)
Write down the numeric answer in % and omit the unit.

The molecule identified as `NS(=O)(=O)Oc1ccc(-c2cn(-c3ccc(OC(F)(F)F)cc3)nn2)cc1` registered its remaining activity at 0.1 µM at 1

// sample `CCc1cccc(-n2cc(-c3ccc(OS(N)(=O)=O)cc3)nn2)c1` , its remaining activity at 0.1 µM was 2.6

Lab note: `Cc1cccc(-n2cc(-c3ccc(OS(N)(=O)=O)cc3)nn2)c1` gave remaining activity at 0.1 µM of 3.1

remaining activity at 0.1 µM measured on `CC(C)c1cccc(-n2cc(-c3ccc(OS(N)(=O)=O)cc3)nn2)c1` = 2.4

Item: `NS(=O)(=O)Oc1ccc(-c2cn(-c3cc(Br)cc(Br)c3)nn2)cc1` | remaining activity at 0.1 µM: 8.3

* * *

Would you mind telling me the reported MCV of each entry?
Format: in vivo
Conditions: Table S1, MTD study, 50 mg/kg

Lab note: `NS(=O)(=O)Oc1ccc(-c2cn(-c3cccc(Cl)c3)nn2)cc1` gave MCV of 46,8±0,2 fL

Record `NS(=O)(=O)Oc1ccc(-c2cn(-c3cccc(F)c3)nn2)cc1` . Reported MCV: 46,9±0,3 fL

For record `NS(=O)(=O)Oc1ccc(-c2cn(-c3cc(F)cc(F)c3)nn2)cc1` the listed MCV is 47,2±0,2 fL

Sample `NS(=O)(=O)Oc1ccc(-c2cn(-c3ccc(F)c(F)c3F)nn2)cc1` ; MCV observed: 46±0,5 fL

The recorded MCV for entry `NS(=O)(=O)Oc1ccc(-c2cn(-c3cc(Cl)cc(Cl)c3)nn2)cc1` equals 46,9±0,5 fL

* * *

Molecular target: STS in MCF-7 cells (Homo sapiens, UniProt P08842)
Construct: The radioisotope cellular assay was performed using the MCF-7 cell line; endogenous in cells; host or cells: MCF-7
Assay: radioisotope cellular assay with [3H]E1S in MCF-7 cells
Assay type: cell-based
Settings: MCF7, 20 h, MCF-7 cells; 10 nM inhibitor; substrate [3H]E1S, 3 nM; triplicate; read-out: residual STS activity [%] 10 nM
test_readout: remaining activity at 0.01 µM (%)
Give a bare numeral; the unit % is implied.

Kindly note the recorded remaining activity at 0.01 µM for `NS(=O)(=O)Oc1ccc(-c2cn(-c3ccccc3)nn2)cc1` , which is 46.6

For record `CC(C)c1cccc(-n2cc(-c3ccc(OS(N)(=O)=O)cc3)nn2)c1` the listed remaining activity at 0.01 µM is 73.4

remaining activity at 0.01 µM recorded for this molecule, `NS(=O)(=O)Oc1ccc(-c2cn(-c3ccc(F)cc3C(F)(F)F)nn2)cc1` , is 48.2

* * *

Assay: blood morphology, blood biochemistry and organ weights of mice with 67NR tumor
Details: Table S2, mice with 67NR tumor, 50 mg/kg
Exercise: state measured HGB for each of the molecules provided.

HGB measured on `NS(=O)(=O)Oc1ccc(-c2cn(-c3ccc(F)c(F)c3F)nn2)cc1` = 13,4±0,6 g/dL

HGB recorded for this molecule, `NS(=O)(=O)Oc1ccc(-c2cn(-c3cc(F)cc(F)c3)nn2)cc1` , is 13,3±0,8 g/dL

GET /value?item= `NS(=O)(=O)Oc1ccc(-c2cn(-c3cc(Cl)cc(Cl)c3)nn2)cc1` &field=HGB returns 13,7±0,9 g/dL

Sample `NS(=O)(=O)Oc1ccc(-c2cn(-c3cccc(Cl)c3)nn2)cc1` ; HGB observed: 13,5±1,1 g/dL

Measured HGB of `NS(=O)(=O)Oc1ccc(-c2cn(-c3cccc(F)c3)nn2)cc1` : 13,5±0,9 g/dL

* * *

Assay: blood morphology, blood biochemistry and organ weights of mice with 67NR tumor
Settings: Table S2, mice with 67NR tumor, 50 mg/kg
Kindly supply the reported RBC values for the records listed here.

# RBC (compound: NS(=O)(=O)Oc1ccc(-c2cn(-c3cc(Cl)cc(Cl)c3)nn2)cc1 [4b] ) is 7,8±0,7 x106/uL

Lab note: measured RBC of NS(=O)(=O)Oc1ccc(-c2cn(-c3cccc(Cl)c3)nn2)cc1 [4a] was 7,6±0,8 x106/uL

The measured RBC associated with NS(=O)(=O)Oc1ccc(-c2cn(-c3ccc(F)c(F)c3F)nn2)cc1 [5e] reads 7,4±0,4 x106/uL

// sample NS(=O)(=O)Oc1ccc(-c2cn(-c3cc(F)cc(F)c3)nn2)cc1 [5l] , its RBC was 7,5±0,5 x106/uL

RBC reported for this compound NS(=O)(=O)Oc1ccc(-c2cn(-c3cccc(F)c3)nn2)cc1 [5g] : 7,4±0,7 x106/uL

* * *

Molecular target: STS activity in murine livers and tumors (Mus musculus)
Sequence (P50427 23-624): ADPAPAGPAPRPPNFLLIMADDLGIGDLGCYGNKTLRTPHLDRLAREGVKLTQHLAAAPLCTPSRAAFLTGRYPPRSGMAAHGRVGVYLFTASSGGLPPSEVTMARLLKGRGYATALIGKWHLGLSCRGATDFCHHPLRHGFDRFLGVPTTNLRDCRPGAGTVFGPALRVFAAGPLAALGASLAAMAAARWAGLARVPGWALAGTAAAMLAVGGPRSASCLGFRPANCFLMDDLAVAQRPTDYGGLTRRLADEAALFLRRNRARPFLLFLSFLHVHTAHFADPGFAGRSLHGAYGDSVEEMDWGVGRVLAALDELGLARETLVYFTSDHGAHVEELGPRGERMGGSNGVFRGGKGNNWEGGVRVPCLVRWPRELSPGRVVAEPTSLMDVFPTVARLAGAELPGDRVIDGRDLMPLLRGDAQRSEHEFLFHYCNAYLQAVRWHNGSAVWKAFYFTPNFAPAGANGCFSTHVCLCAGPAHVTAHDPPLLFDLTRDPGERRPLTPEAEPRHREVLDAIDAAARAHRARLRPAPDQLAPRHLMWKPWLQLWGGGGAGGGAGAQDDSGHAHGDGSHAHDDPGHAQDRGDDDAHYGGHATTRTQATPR
Assay: determination of STS activity in murine livers and tumors of treated mice
Details: liver tissue of mice treated per os at 50 mg/kg b.w.
test_readout: Residual STS activity [%] Liver

Given item `NS(=O)(=O)Oc1ccc(-c2cn(-c3cccc(Cl)c3)nn2)cc1` , the value recorded as its Residual STS activity [%] Liver is 12,1%

Reported Residual STS activity [%] Liver for `NS(=O)(=O)Oc1ccc(-c2cn(-c3cc(Cl)cc(Cl)c3)nn2)cc1` was 14,5%

Short answer for `NS(=O)(=O)Oc1ccc(-c2cn(-c3cccc(F)c3)nn2)cc1` : Residual STS activity [%] Liver was 13,6%

# compound `NS(=O)(=O)Oc1ccc(-c2cn(-c3cc(F)cc(F)c3)nn2)cc1` ; its Residual STS activity [%] Liver = 10,1%
